test: background-corrected fluorescence of 3'-dye-labeled ssDNA relative to brightest sequence (3'-GCGCG) (fraction); higher = brighter dye fluorescence (less quenching); conditions: dye: Cy3 (3' terminal)
VALUE_TYPE: background-corrected fluorescence
Answer field: number only, no words.

Worked cases, answers included:
>  <ORDERED_RESIDUES>
TTTTTTGATGATGATGATGATTTTTTTTTTTTTTTCCCCC

>  <NUMERIC_VALUE>
0.369

$$$$
>  <ORDERED_RESIDUES>
TTTTTTCATGATGCTGCTCATTTTTTTTTTTTTTTGCAAG [GAACG]

>  <NUMERIC_VALUE>
0.503

$$$$
>  <ORDERED_RESIDUES>
TTTTTTGATGATGAGCAGCATTTTTTTTTTTTTTTCCCTT

>  <NUMERIC_VALUE>
0.452

$$$$
>  <ORDERED_RESIDUES>
TTTTTGCAGCATGATGATGCTTTTTTTTTTTTTTTTTCCA [ACCTT]

>  <NUMERIC_VALUE>
0.453

$$$$
>  <ORDERED_RESIDUES>
TTTTTGCATGATCAGCAGCATTTTTTTTTTTTTTTTCGTT [TTGCT]

>  <NUMERIC_VALUE>
0.55

$$$$

response.value for TTTTTTGCTGCTGCTGATCATTTTTTTTTTTTTTTAAACG [GCAAA] (field: background-corrected fluorescence) = 0.559

response.value for TTTTTTGCTGCTGAGCATGATTTTTTTTTTTTTTTAACTC [CTCAA] (field: background-corrected fluorescence) = 0.418

response.value for TTTTTGCAGCAGCATGATGATTTTTTTTTTTTTTTTTTCC [CCTTT] (field: background-corrected fluorescence) = 0.363

====

assay: background-corrected fluorescence of 3'-dye-labeled ssDNA relative to brightest sequence (3'-GCGCG) (fraction); higher = brighter dye fluorescence (less quenching); conditions: dye: Cy5 (3' terminal)
VALUE_TYPE: background-corrected fluorescence
Answer field: number only, no words.

>  <ORDERED_RESIDUES>
TTTTTTCAGCATGATGATGATTTTTTTTTTTTTTTGTCCC [CCCTG]

>  <NUMERIC_VALUE>
0.294

$$$$
>  <ORDERED_RESIDUES>
TTTTTTGCTGATGAGCAGCATTTTTTTTTTTTTTTACCTT [TTCCA]

>  <NUMERIC_VALUE>
0.351

$$$$
>  <ORDERED_RESIDUES>
TTTTTTGCTGCTCATGAGCATTTTTTTTTTTTTTTAAGCT [TCGAA]

>  <NUMERIC_VALUE>
0.402

$$$$

response.value for TTTTTTCATCATGCTCATGATTTTTTTTTTTTTTTGGAGC [CGAGG] (field: background-corrected fluorescence) = 0.439

response.value for TTTTTTGCTGCGCATCATGATTTTTTTTTTTTTTTAATGC [CGTAA] (field: background-corrected fluorescence) = 0.4

response.value for TTTTTTGCTCATGCTCAGCATTTTTTTTTTTTTTTAGAGT [TGAGA] (field: background-corrected fluorescence) = 0.503

response.value for TTTTTGCATGCTCATCATGATTTTTTTTTTTTTTTTAGGC [CGGAT] (field: background-corrected fluorescence) = 0.464

response.value for TTTTTTCAGCAGCATGATGATTTTTTTTTTTTTTTGTTCC [CCTTG] (field: background-corrected fluorescence) = 0.275

response.value for TTTTTGCATGATCATGCTGCTTTTTTTTTTTTTTTTCGAA [AAGCT] (field: background-corrected fluorescence) = 0.524
